In this section we review reported pIC50 values for a set of molecules.
STUDY SYSTEM: CDK9/cyclinTl (Homo sapiens, UniProt P50750)
Sequence (P50750 whole entry): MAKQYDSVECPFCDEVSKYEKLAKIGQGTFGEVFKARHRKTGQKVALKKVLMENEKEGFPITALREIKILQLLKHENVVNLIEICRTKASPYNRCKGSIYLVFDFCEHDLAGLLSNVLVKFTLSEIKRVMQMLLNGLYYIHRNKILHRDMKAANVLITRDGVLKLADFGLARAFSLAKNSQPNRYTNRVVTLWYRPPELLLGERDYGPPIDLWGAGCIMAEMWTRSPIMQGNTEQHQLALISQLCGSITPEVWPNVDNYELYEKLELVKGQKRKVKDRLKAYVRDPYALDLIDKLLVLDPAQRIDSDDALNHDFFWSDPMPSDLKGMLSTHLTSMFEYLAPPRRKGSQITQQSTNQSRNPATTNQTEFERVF
Sequence (O60563 whole entry partner): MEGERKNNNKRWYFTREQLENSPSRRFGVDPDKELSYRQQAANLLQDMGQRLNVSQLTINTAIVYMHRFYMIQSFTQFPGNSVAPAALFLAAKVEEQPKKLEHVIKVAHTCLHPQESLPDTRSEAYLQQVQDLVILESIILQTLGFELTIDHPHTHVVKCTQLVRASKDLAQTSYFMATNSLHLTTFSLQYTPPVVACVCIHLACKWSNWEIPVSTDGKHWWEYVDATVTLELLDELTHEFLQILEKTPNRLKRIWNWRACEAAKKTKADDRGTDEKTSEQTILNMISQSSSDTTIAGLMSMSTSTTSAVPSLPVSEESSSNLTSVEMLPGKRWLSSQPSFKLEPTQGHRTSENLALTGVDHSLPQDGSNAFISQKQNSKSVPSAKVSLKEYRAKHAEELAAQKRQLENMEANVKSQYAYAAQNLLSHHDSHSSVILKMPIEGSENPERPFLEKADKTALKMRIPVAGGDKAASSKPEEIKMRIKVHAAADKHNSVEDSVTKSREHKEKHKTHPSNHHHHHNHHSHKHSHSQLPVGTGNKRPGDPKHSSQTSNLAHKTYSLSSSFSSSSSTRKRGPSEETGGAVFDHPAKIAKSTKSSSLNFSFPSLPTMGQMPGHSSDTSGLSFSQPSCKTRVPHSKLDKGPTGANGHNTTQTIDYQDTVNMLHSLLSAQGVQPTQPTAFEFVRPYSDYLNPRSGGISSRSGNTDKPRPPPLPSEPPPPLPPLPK
PROTOCOL DESCRIPTION: Determination of CDK activity (Caliper mobility shift, FAM-P8 peptide): CDK9
Format: biochemical
CONDITION PARAMETERS: CDK9/cyclinTl; read-out: CDK9 enzymatic inhibitory activity (IC50)
pIC50: −log10 of the molar value.

# return recorded pIC50 for entry CCC(c1ccc(Nc2ncc(F)c(-c3cc(F)c4nc(C)n(C(C)C)c4c3)n2)nc1)N1CCN(CC)CC1 (racemic) [Example 1]
5.00 to 6.00

Return value of pIC50 for input CCN1CCC(C(O)c2ccc(Nc3ncc(F)c(-c4cc(F)c5nc(C)n(C(C)C)c5c4)n3)nc2)CC1 (single isomer, unassigned) [Example 40] , no commentary.
> 7.00

Specify reported pIC50 for the molecule shown: CCN1CCC(C(OC(C)=O)c2ccc(Nc3ncc(F)c(-c4cc(F)c5nc(C)n(C(C)C)c5c4)n3)nc2)CC1 (single isomer, unassigned) [Example 72]
6.30 to 7.00

Output measured pIC50 for this item: COCCCN1CCC([C@@H](C)c2ccc(Nc3ncc(F)c(-c4cc(F)c5nc(C)n(C(C)C)c5c4)n3)nc2)CC1 [Example 81]
6.30 to 7.00

Give pIC50 for the following molecule: CCN1CCC(=C(C)c2ccc(Nc3ncc(F)c(-c4cc(F)c5nc(C)n(C(C)C)c5c4)n3)nc2)CC1 [Example 58]
6.30 to 7.00

Identify the reported pIC50 for the following entry. CC[C@H](c1ccc(Nc2ncc(F)c(-c3cc(F)c4nc(C)n(C(C)C)c4c3)n2)nc1)C1CCN(CC)CC1 [Example 26]
6.00 to 6.30

* * *

STUDY SYSTEM: CDK4/CycD3 (Homo sapiens, UniProt P11802)
Sequence (P11802 whole entry): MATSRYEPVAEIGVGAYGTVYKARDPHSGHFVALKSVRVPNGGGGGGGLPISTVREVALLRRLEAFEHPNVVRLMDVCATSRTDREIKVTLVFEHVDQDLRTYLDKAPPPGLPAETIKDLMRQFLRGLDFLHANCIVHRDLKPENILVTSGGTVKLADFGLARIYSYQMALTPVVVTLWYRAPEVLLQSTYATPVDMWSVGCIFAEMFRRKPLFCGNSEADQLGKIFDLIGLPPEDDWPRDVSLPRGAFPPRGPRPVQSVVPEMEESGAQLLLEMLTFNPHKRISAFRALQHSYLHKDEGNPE
Sequence (P30281 whole entry partner): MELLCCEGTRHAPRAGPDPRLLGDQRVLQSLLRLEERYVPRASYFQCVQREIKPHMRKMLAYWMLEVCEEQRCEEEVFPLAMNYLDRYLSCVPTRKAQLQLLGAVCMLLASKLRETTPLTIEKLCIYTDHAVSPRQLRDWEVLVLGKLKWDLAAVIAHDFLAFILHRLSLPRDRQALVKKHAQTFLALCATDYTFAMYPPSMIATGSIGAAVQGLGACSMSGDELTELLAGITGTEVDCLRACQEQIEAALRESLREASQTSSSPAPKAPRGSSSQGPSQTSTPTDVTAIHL
PROTOCOL DESCRIPTION: Determination of CDK activity (Caliper mobility shift, FAM-P8 peptide): CDK4
Format: biochemical
CONDITION PARAMETERS: CDK4/CycD3; read-out: CDK4 enzymatic inhibitory activity (IC50)
RECORDED METRIC: IC50

Here are 2 compounds together with their reported answers.
COMPOUND | STUDY SYSTEM | IC50
CCC(c1ccc(Nc2ncc(F)c(-c3cc(F)c4nc(C)n(C(C)C)c4c3)n2)nc1)N1CCN(CC)CC1 (single isomer, unassigned) [Example 2] | CDK4/CycD3 (Homo sapiens, UniProt P11802) | < 100 nM
CC[C@@H](c1ccc(Nc2ncc(F)c(-c3cc(F)c4nc(C)n(C(C)C)c4c3)n2)nc1)N1CCN(C)CC1 [Example 6] | CDK4/CycD3 (Homo sapiens, UniProt P11802) | < 100 nM

Please look at this compound and report its IC50: CCC(c1ccc(Nc2ncc(F)c(-c3cc(F)c4nc(C)n(C(C)C)c4c3)n2)nc1)N1CCN(CC)CC1 (single isomer, unassigned) [Example 3]
< 100 nM

Note down IC50 recorded for Cc1nc2c(F)cc(-c3nc(Nc4ccc([C@H](C)C5CCN(C(C)C)CC5)cn4)ncc3F)cc2n1C(C)C (single isomer, unassigned) [Example 73]
< 100 nM

Quick one: give measured IC50 for CC[C@@H](c1ccc(Nc2ncc(F)c(-c3cc(F)c4nc(C)n(C(C)C)c4c3)n2)nc1)C1CCN(CC)CC1 [Example 25]
100 to 500 nM

Specify reported IC50 for the compound shown: CCN1CCC(C(C)c2ccc(Nc3ncc(F)c(-c4cc(F)c5nc(C)n(C(C)C)c5c4)n3)nc2)CC1 (racemic) [Example 16]
< 100 nM
